Measured values drawn from patent US20180057581A1 for this set.

biological target: native human M-CSF (in human serum or in MDA-MB-231 conditioned medium) (human), P09603; test: cell-based or functional assay
Sequence (P09603 33-255): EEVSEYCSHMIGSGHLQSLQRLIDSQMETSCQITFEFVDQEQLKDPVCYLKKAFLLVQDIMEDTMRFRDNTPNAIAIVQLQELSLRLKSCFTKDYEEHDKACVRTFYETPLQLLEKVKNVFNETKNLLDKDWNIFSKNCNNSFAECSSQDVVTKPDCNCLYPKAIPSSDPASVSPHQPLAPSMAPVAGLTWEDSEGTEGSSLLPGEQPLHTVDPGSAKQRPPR
Assignment: determine reported IC50, inhibition of M-NFS-60 proliferation induced by human serum (50%) for the given binders.
Give bare numbers, in pM.

Guide cases for IC50, inhibition of M-NFS-60 proliferation induced by human serum (50%), answers given:
binder="Camille, IgG1_D265A (antibody, V domains shown) VH: QVQLQQSGPGLVKPSQTLSLTCAISGESVSTSSAAWNWIRQSPSRGLEWLGRTYYRSKWKHEYAVSVKSRITINPDTSKNQFSLQLNSVTPEDTAVYYCARDRYYYSAFDYWGQGTLVTVSS VL: QSALTQPASVSGSPGQSITISCTGTSSDVGGYNSVSWYQQHPGKAPKLLIYAVSNRPSGVSNRFSGSKSGNTASLTISGLQAEDEADYYCASYDERFTRVFGGGTKLTVLGQ" value_observed=17.7
binder="HeRX1-10G1, IgG1 (antibody, V domains shown) VH: QVQLQESGPGLVKPSQTLSLTCTVSDYSITSDYAWNWIRQFPGKGLEWMGYISYSGSTSYNPSLKSRITISRDTSKNQFSLQLNSVTAADTAVYYCASFDYAHAMDYWGQGTTVTVSS VL: DIVLTQSPAFLSVTPGEKVTFTCQASQSIGTSIHWYQQKTDQAPKLLIKYASESISGIPSRFSGSGSGTDFTLTISSVEAEDAADYYCQQINSWPTTFGGGTKLEIKRT" value_observed=15.4
binder="Satine, IgG1_D265A (antibody, V domains shown) VH: EVQLVESGGGLVKPGGSLRLSCAASGFTFSIYAMSWVRQAPGKGLEWVGRIKSNADGGTTEYAAPVKGRFTISRDDSKNTLYLQMNSLKTEDTAVYYCARMRYYSDLYFDPWGQGTLVTVSS VL: SYELTQPPSVSVSPGQTASITCSGDKLGQKYVSWYQQKPGQSPVLVISQDRKRPSGIPERFSGSNSGNTATLTISGTQAEDEADYYCQTWTHLQWVFGGGTKLTVLGQ" value_observed=31.8
binder="Maelle, IgG1_D265A (antibody, V domains shown) VH: QVQLQQSGPGLVKPSQTLSLTCAISGESVSTSSAAWNWIRQSPSRGLEWLGRTYYRSKWKKEYAQSVKSRITINPDTSKNQFSLQLNSVTPEDTAVYYCARDRYYYSAFDYWGQGTLVTVSS VL: QSALTQPASVSGSPGQSITISCTGTSSDVGGYNSVSWYQQHPGKAPKLIIYAVSNRPSGVSNRFSGSKSGNTASLTISGLQAEDEADYYCASYDERFTRVFGGGTKLTVLGQ" value_observed=16

As a next step, examine the binder that follows.
query: Suppose we examine the binder Celine, IgG1_D265A (antibody, V domains shown) VH: QVQLQQSGPGLVKPSQTLSLTCAISGDSVSTSSAAWNWIRQSPSRGLEWLGRTYYRSKWKHEYAVSVKSRITINPDTSKNQFSLQLNSVTPEDTAVYYCARDRYYYSAFDYWGQGTLVTVSS VL: QSALTQPASVSGSPGQSITISCTGTSSDVGGYNSVSWYQQHPGKAPKLIIYAVSNRPSGVSNRFSGSKSGNTASLTISGLQAEDEADYYCASYDERFTRVFGGGTKLTVLGQ ; what IC50, inhibition of M-NFS-60 proliferation induced by human serum (50%) value has been reported?
result: 23.8
